# Lookup of reported minimal effective concentration keyed by entry
- System: RPEMYC^H2B-GFP cells
- PROTOCOL DESCRIPTION: Phenotypic screening assay (mitotic arrest, polyploidy)
- Type: cell-based
- SETUP CONDITIONS: 1 nM to 30 μM, read-out: Mitotic Arrest (≥5%)

COMPOUND: COc1cc(Oc2ncnc3cc(OC)c(OC)cc23)cc(-n2cnc(C)c2)c1
minimal effective concentration: 0.001 to 1 µM
--
COMPOUND: [2H]c1cc(Oc2cc(OC)cc([N+](=O)[O-])c2)c2cc(Br)ccc2n1
minimal effective concentration: 1 to 10 µM
--
COMPOUND: COc1cc(Oc2ccnc3ccc(Br)cc23)cc(OC2CCOC2)c1 (stereo not shown)
minimal effective concentration: 0.001 to 1 µM
--
COMPOUND: COc1cc(Oc2cc(C)nc3ccccc23)cc(-n2cccn2)c1
minimal effective concentration: 0.001 to 1 µM
--
COMPOUND: COc1cc(OC)cc(Oc2ccnc3ccc(Br)cc23)c1
minimal effective concentration: 0.001 to 1 µM
--
COMPOUND: COc1cc(Oc2ccnc3cc(OC)c(C(N)=O)cc23)cc(-n2cc(C)cn2)c1
minimal effective concentration: 0.001 to 1 µM
--
COMPOUND: CNC(=O)c1cc2c(Oc3cc(NC(C)=O)cc(OC)c3)ccnc2cc1OC
minimal effective concentration: 1 to 10 µM
--
COMPOUND: COc1cc2nccc(Oc3cc(OC4CCOC4)cc(OC4CCOC4)c3)c2cc1C(N)=O (stereo not shown)
minimal effective concentration: 1 to 10 µM
--
COMPOUND: COc1cc(Oc2ccnc3cc(OC)c(C(N)=O)cc23)cc(-n2cccn2)c1
minimal effective concentration: 0.001 to 1 µM
--
COMPOUND: COc1cc(NC(C)=O)cc(Oc2ccnc3ccc(C(F)(F)F)cc23)c1
minimal effective concentration: 0.001 to 1 µM
--
COMPOUND: COC(=O)c1cc(Oc2ccnc3ccccc23)cc(C(=O)OC)c1
minimal effective concentration: 0.001 to 1 µM
--
COMPOUND: COc1cc2nccc(Oc3cc(Cl)cc(-n4cccn4)c3)c2cc1C(N)=O
minimal effective concentration: 1 to 10 µM
--
COMPOUND: COc1cc(Oc2ncnc3cc(OC)c(OC)cc23)cc(-n2ccnc2)c1
minimal effective concentration: 10 to 30 µM
--
COMPOUND: COc1cc(Oc2ccnc3ccc(Br)cc23)cc([N+](=O)[O-])c1
minimal effective concentration: 0.001 to 1 µM
--
COMPOUND: COc1cc(Oc2ccnc3ccc(C(N)=O)cc23)cc(O[C@@H]2CCOC2)c1
minimal effective concentration: 0.001 to 1 µM
--
COMPOUND: COc1cc(Oc2ccnc3ccccc23)cc(-c2nc(C)no2)c1
minimal effective concentration: 0.001 to 1 µM
--
COMPOUND: COc1cc(Oc2ccnc3cc(OC)c(C(N)=O)cc23)cc(O[C@@H]2CCOC2)c1
minimal effective concentration: 0.001 to 1 µM
--
COMPOUND: COc1cc(Oc2ccnc3ccccc23)cc(-n2cnc(C)c2)c1
minimal effective concentration: 0.001 to 1 µM
--
COMPOUND: CNC(=O)c1cc(OC)cc(Oc2ccnc3ccccc23)c1
minimal effective concentration: 0.001 to 1 µM
--
COMPOUND: COc1cc(NC(C)=O)cc(Oc2ccnc3ccc(Cl)cc23)c1
minimal effective concentration: 0.001 to 1 µM
--
COMPOUND: COc1cc(Oc2ccnc3cc(OC)c(C(N)=O)cc23)cc(-c2cnn(C)c2)c1
minimal effective concentration: 0.001 to 1 µM
--
COMPOUND: COc1cc(NC(C)=O)cc(Oc2ccnc3ccc(C(=O)O)cc23)c1
minimal effective concentration: 1 to 10 µM
--
COMPOUND: COC(=O)c1cc(OC)cc(Oc2ccnc3ccccc23)c1
minimal effective concentration: 0.001 to 1 µM
--
COMPOUND: COc1cc(Oc2ccnc3cc(OC)c(C(N)=O)cc23)cc(O[C@H]2CCOC2)c1
minimal effective concentration: 0.001 to 1 µM
--
COMPOUND: COc1cc(OC)cc(Oc2ncnc3ccn(C)c23)c1
minimal effective concentration: 1 to 10 µM
--
COMPOUND: COc1cc(NC(C)=O)cc(Oc2ccnc3ccc(C(=O)N(C)C)cc23)c1
minimal effective concentration: 1 to 10 µM
--
COMPOUND: COc1cc(OC)cc(Oc2ccnc3cc(OC)c(C(N)=O)cc23)c1
minimal effective concentration: 0.001 to 1 µM
--
COMPOUND: CNC(=O)c1cc(OC)cc(Oc2ccnc3ccc(C(F)(F)F)cc23)c1
minimal effective concentration: 1 to 10 µM
--
COMPOUND: COc1cc(OC)cc(Oc2ccnc3ccc(-c4ccco4)cc23)c1
minimal effective concentration: 1 to 10 µM
--
COMPOUND: COc1cc(Oc2ccnc3cc(OC)c(C(N)=O)cc23)cc(-c2nnc(C)o2)c1
minimal effective concentration: 0.001 to 1 µM
--
COMPOUND: COc1cc(Oc2ncnc3cc(OC)c(OC)cc23)cc(-n2cccn2)c1
minimal effective concentration: 10 to 30 µM
--
COMPOUND: COc1cc(NC(C)=O)cc(Oc2ccnc3cc(OC)c(OC)cc23)c1
minimal effective concentration: 0.001 to 1 µM
--
COMPOUND: COc1cc(N)cc(Oc2ccnc3ccc(Br)cc23)c1
minimal effective concentration: 0.001 to 1 µM
--
COMPOUND: COc1cc(NC(C)=O)cc(Oc2ccnc3ccc(F)cc23)c1
minimal effective concentration: 0.001 to 1 µM
--
COMPOUND: COc1cc(Oc2ccnc3ccc(F)cc23)cc(-n2cccn2)c1
minimal effective concentration: 0.001 to 1 µM
--
COMPOUND: COc1cc(NC(C)=O)cc(Oc2ncnc3ccn(C)c23)c1
minimal effective concentration: 1 to 10 µM
--
COMPOUND: COc1cc(Oc2ncnc3ccccc23)cc(-n2ccnc2)c1
minimal effective concentration: 1 to 10 µM

###

# Lookup of reported EC50 keyed by entry
- System: A549
- PROTOCOL DESCRIPTION: MTT assay of cellular proliferation
- Type: cell-based
- SETUP CONDITIONS: Homo sapiens, 50% inhibition of cellular proliferation
PARAMETER MEASURED: EC50

TEST SMILES: COc1cc(NC(C)=O)cc(Oc2ccnc3ccc(F)cc23)c1
PARAMETER MEASURED: EC50
RESULT: 1 to 1000 nM
//
TEST SMILES: COc1cc(NC(C)=O)cc(Oc2ccnc3cc(OC)c(OC)cc23)c1
PARAMETER MEASURED: EC50
RESULT: 1 to 1000 nM
//
TEST SMILES: COc1cc(NC(C)=O)cc(Oc2ccnc3ccc(OC)cc23)c1
PARAMETER MEASURED: EC50
RESULT: 1 to 1000 nM
//
TEST SMILES: COc1cc(Oc2ccnc3ccc(OC)cc23)cc(-n2cccn2)c1
PARAMETER MEASURED: EC50
RESULT: 1 to 1000 nM
//
TEST SMILES: COC(=O)c1cc(OC)cc(Oc2ncnc3ccsc23)c1
PARAMETER MEASURED: EC50
RESULT: > 30000 nM
//
TEST SMILES: COC(=O)c1cc(OC)cc(Oc2ncnc3cc[nH]c23)c1
PARAMETER MEASURED: EC50
RESULT: > 30000 nM
//
TEST SMILES: COC(=O)c1ccc2nccc(Oc3cc(NC(C)=O)cc(OC)c3)c2c1
PARAMETER MEASURED: EC50
RESULT: 1 to 1000 nM
//
TEST SMILES: COC(=O)c1cc(OC)cc(Oc2ncnc3cc(OC)c(OC)cc23)c1
PARAMETER MEASURED: EC50
RESULT: > 30000 nM
//
TEST SMILES: COc1cc(Oc2ccnc3ccsc23)cc(-n2cccn2)c1
PARAMETER MEASURED: EC50
RESULT: 1 to 1000 nM
//
TEST SMILES: COc1cc(Oc2ccnc3cc(OC)c(C(N)=O)cc23)cc(-n2cccn2)c1
PARAMETER MEASURED: EC50
RESULT: 1 to 1000 nM
//
TEST SMILES: COc1cc(Oc2ncnc3cc[nH]c23)cc(-n2cccn2)c1
PARAMETER MEASURED: EC50
RESULT: 1 to 1000 nM
//
TEST SMILES: COc1cc(Oc2ncnc3ccsc23)cc(-n2cccn2)c1
PARAMETER MEASURED: EC50
RESULT: 1 to 1000 nM
//
TEST SMILES: COC(=O)c1cc(Oc2ncnc3cc[nH]c23)cc(C(=O)OC)c1
PARAMETER MEASURED: EC50
RESULT: > 30000 nM
//
TEST SMILES: COc1cc(NC(C)=O)cc(Oc2ccnc3ccsc23)c1
PARAMETER MEASURED: EC50
RESULT: 1 to 1000 nM
//
TEST SMILES: COC(=O)c1cc2c(Oc3cc(OC)cc(-n4cccn4)c3)ccnc2cc1OC
PARAMETER MEASURED: EC50
RESULT: 1000 to 10000 nM
//
TEST SMILES: COc1cc(Oc2ccnc3ccc(F)cc23)cc(-n2cccn2)c1
PARAMETER MEASURED: EC50
RESULT: 1 to 1000 nM
//
TEST SMILES: COc1cc(NC(C)=O)cc(Oc2ccnc3ccc(Br)cc23)c1
PARAMETER MEASURED: EC50
RESULT: 1 to 1000 nM
//
TEST SMILES: COC(=O)c1cc(Oc2ncnc3ccsc23)cc(C(=O)OC)c1
PARAMETER MEASURED: EC50
RESULT: > 30000 nM
//
TEST SMILES: COc1cc(NC(C)=O)cc(Oc2ccnc3ccccc23)c1
PARAMETER MEASURED: EC50
RESULT: 1 to 1000 nM
//
TEST SMILES: COc1cc(Oc2ccnc3ccc(Br)cc23)cc(-n2cccn2)c1
PARAMETER MEASURED: EC50
RESULT: 1 to 1000 nM
//
TEST SMILES: COc1cc(Oc2ccnc3ccccc23)cc(-n2cccn2)c1
PARAMETER MEASURED: EC50
RESULT: 1 to 1000 nM
//
TEST SMILES: COc1cc(Oc2ccnc3cc(OC)c(OC)cc23)cc(-n2cccn2)c1
PARAMETER MEASURED: EC50
RESULT: 1 to 1000 nM
